The reported numbers originate from patent US11957759B1.

Recorded Dmax for the following compounds
Target: B-RAF V600E (Homo sapiens, UniProt P15056, V600E)
Construct: expressed in transfected cells; host or cells: T-Rex 293 cells (Invitrogen #R71007)
Sequence (P15056 whole entry V600E): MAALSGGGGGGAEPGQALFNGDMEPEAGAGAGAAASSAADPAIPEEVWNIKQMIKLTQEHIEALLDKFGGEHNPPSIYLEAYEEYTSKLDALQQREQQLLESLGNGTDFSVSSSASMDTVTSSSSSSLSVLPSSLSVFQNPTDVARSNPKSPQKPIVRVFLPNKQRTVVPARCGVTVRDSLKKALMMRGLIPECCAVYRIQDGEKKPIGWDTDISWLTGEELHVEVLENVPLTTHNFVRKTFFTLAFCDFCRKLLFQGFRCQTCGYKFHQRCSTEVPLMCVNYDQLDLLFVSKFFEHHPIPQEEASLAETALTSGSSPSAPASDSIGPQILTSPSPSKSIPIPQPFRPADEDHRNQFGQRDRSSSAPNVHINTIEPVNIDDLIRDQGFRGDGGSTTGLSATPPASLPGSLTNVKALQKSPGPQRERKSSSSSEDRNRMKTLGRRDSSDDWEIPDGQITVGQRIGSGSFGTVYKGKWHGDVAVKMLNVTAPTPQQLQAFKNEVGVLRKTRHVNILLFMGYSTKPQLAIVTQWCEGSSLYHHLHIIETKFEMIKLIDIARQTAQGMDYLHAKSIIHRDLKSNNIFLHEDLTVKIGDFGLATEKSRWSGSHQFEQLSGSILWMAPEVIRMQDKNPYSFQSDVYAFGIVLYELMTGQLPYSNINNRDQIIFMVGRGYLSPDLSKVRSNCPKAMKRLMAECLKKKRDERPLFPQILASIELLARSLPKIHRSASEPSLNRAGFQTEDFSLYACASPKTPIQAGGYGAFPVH
Test: Target protein degradation, assay C: T-Rex 293 cells, HA-BRAF_V600E, 384 well format
Format: cell-based
Settings: T-REx-293, Assay C, T-Rex 293 HA-BRAF_V600E cells, 24 hours, Examples 83-269

Record excerpt, results attached:
1. O=C1CCC(N2Cc3cc(N4CCC(CN5CCN(c6ccc(-n7cnc8ccc(Oc9c(F)ccc(NS(=O)(=O)N%10CC[C@@H](F)C%10)c9F)cc8c7=O)cc6)CC5)CC4)ccc3C2=O)C(=O)N1 (stereo partly drawn) [Example 177] | 35 to 70%
2. N#Cc1c(NS(=O)(=O)N2CC[C@@H](F)C2)ccc(F)c1Oc1ccc2ncn(-c3cnc(N4CCC(CN5CCC6(CC5)CCN(c5ccc7c(c5)C(=O)N(C5CCC(=O)NC5=O)C7=O)CC6)CC4)nc3)c(=O)c2c1 (stereo partly drawn) [Example 129] | 35 to 70%

--- query ---
Entry under review: N#Cc1c(NS(=O)(=O)N2CC[C@@H](F)C2)ccc(F)c1Oc1ccc2ncn(-c3ccc(N4CCC(CN5CCC6(CC5)CN(c5cccc7c5CN(C5CCC(=O)NC5=O)C7=O)C6)CC4)nc3)c(=O)c2c1 (stereo partly drawn) [Example 169] . Reported Dmax?
35 to 70%

====

Recorded DC50 for the following compounds
Target: B-RAF V600E (Homo sapiens, UniProt P15056, V600E)
Construct: expressed in transfected cells; host or cells: T-Rex 293 cells (Invitrogen #R71007)
Test: Target protein degradation, assay C: T-Rex 293 cells, HA-BRAF_V600E, 384 well format
Assay type: cell-based
Settings: Assay C, T-Rex 293 HA-BRAF_V600E cells, 24 hours, Examples 83-269

Hi! What's the reported DC50 for `N#Cc1c(NS(=O)(=O)N2CC[C@@H](F)C2)ccc(F)c1Oc1ccc2ncn(-c3ccc(N4CC(CN5CC(c6ccc7c(c6)CN([C@@H]6CCC(=O)NC6=O)C7=O)C5)C4)cc3)c(=O)c2c1` on B-RAF V600E (Homo sapiens, UniProt P15056, V600E)?
50 to 500 nM

For N#Cc1c(NS(=O)(=O)N2CC[C@@H](F)C2)ccc(F)c1Oc1ccc2ncn(-c3cnc(C4(N5CCN(CC6CCN(c7ccc8c(c7)CN(C7CCC(=O)NC7=O)C8=O)CC6)CC5)CC4)nc3)c(=O)c2c1 (some centres unmarked) then?
50 to 500 nM

For N#Cc1c(NS(=O)(=O)N2CC[C@@H](F)C2)ccc(F)c1Oc1ccc2ncn(-c3ccc(N4CCC(OC5CC6(C5)CN(c5ccc7c(c5)CN(C5CCC(=O)NC5=O)C7=O)C6)CC4)cc3)c(=O)c2c1 (some centres unmarked) then?
50 to 500 nM

For N#Cc1c(NS(=O)(=O)N2CC[C@@H](F)C2)ccc(F)c1Oc1ccc2ncn(-c3cnc(N4CC5(CN(CC6CCN(c7cccc8c7C(=O)N(C7CCC(=O)NC7=O)C8=O)CC6)C5)C4)nc3)c(=O)c2c1 (some centres unmarked) then?
50 to 500 nM

For N#Cc1c(NS(=O)(=O)N2CC[C@@H](F)C2)ccc(F)c1Oc1ccc2ncn(-c3cnc(N4CCCC4CC4CCN(c5ccc6c(c5)C(=O)N(C5CCC(=O)NC5=O)C6=O)CC4)nc3)c(=O)c2c1 (some centres unmarked) then?
> 500 nM
